target or system: Lysine-specific demethylase 4A (Homo sapiens) (UniProt O75164)
Sequence (O75164 whole entry, looked up, the tested form may be a part): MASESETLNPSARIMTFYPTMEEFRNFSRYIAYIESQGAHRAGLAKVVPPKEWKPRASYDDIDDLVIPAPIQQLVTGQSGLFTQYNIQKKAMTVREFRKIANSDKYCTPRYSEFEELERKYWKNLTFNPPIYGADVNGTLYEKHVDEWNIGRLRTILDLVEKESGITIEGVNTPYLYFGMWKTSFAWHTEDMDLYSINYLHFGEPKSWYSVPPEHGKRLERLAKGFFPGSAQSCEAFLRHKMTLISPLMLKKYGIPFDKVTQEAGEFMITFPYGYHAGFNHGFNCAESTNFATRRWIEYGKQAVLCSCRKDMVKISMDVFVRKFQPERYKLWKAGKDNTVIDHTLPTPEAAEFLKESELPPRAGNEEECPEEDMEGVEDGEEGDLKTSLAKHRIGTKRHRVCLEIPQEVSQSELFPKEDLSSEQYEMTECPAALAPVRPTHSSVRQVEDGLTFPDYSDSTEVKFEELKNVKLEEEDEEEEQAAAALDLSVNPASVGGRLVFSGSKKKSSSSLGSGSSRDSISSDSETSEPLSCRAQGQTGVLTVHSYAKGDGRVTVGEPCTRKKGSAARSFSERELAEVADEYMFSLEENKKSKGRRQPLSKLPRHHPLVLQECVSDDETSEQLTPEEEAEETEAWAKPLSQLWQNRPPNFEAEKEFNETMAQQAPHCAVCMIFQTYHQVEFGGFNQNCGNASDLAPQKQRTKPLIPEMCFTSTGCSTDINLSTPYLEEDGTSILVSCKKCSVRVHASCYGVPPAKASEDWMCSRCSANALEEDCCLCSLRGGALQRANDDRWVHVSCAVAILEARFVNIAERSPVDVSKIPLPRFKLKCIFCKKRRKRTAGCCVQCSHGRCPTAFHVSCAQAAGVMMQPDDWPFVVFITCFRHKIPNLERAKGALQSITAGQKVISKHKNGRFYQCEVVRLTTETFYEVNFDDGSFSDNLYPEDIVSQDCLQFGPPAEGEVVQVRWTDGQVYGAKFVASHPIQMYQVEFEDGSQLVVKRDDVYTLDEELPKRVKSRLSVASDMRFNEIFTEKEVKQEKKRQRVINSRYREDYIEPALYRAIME
assay info: qHTS Assay for Inhibitors of JMJD2A-Tudor Domain; further: nearly all actives have a fitted effect of over 50% in size
measurement conditions: AlphaScreen JMJD2A-Tudor / H3K4me3 peptide binding; series mostly up to 114 µM
Out of some 390,000 compounds screened, about 17,000 (4.4%) were called active. Not shown: some 8% with an inconclusive outcome. The call rests on the fitted dose curve; in most records, active means well fitted inhibition curve with a large enough effect; inconclusive means small, poorly fitted or top-dose-only effect; inactive means no such curve, though single readings can be large or run the other way. For the sample, actives were picked, then their nearest neighbours and some compounds at random.
Choose one outcome from this list and give only that: 1 (active), 0 (inactive)

compound: COC(=O)[C@@H]1C(OC(=O)c2ccccc2)CC2CCC1N2C (stereo not given in full)
label value: 0
--
compound: COC1=C[C@@H]2[C@@H]3Cc4ccc(OC)c(O)c4[C@]2(CCN3C)CC1=O
label value: 0
--
compound: O=C(C1CC(=O)N(C2CCCC2)C1)N1CCC2(CC1)OCCO2 (stereo not given)
label value: 0
--
compound: CCOc1cc(N2CCOCC2)c(OCC)cc1NC(=O)C1=NN(c2cccc(C)c2)C(=O)CC1
label value: 1
--
compound: COC(=O)C1=C(c2ccc(Cl)c(C(F)(F)F)c2)C[C@@H]2CC[C@H]1N2C(=O)NC(C)C
label value: 0
--
compound: Cc1ccc(Oc2cnn(-c3ccccc3)c(=O)c2Br)cc1
label value: 0
--
compound: CCC1(C)CC(CCNCc2ccc(N(C)C)cc2)(c2ccc(F)cc2)CCO1 (stereo not given)
label value: 1
--
compound: Cc1cccc(-n2c(O)c(/C=N/N3CCOCC3)c(=O)[nH]c2=S)c1
label value: 0

Prompt: What is the recorded call for this compound in the test? CCc1nnc(NS(=O)(=O)c2ccc(N=Cc3c(O)n(-c4ccccc4)c(=O)[nH]c3=O)cc2)s1
Response: 0

Prompt: Tell me the recorded outcome of this test for CCOP(=S)(OCC)SCOC(=O)NCC(=O)OC .
Response: 0

###

target or system: Lysine-specific demethylase 4A (Homo sapiens)
assay info: qHTS Assay for Inhibitors of JMJD2A-Tudor Domain; further: nearly all actives have a fitted effect of over 50% in size
measurement conditions: AlphaScreen JMJD2A-Tudor / H3K4me3 peptide binding; series mostly up to 114 µM
Hit rate of the full screen: of about 390,000 compounds, about 17,000 (4.4%) were called active. Roughly 8% stayed inconclusive and do not appear here. Calls follow the shape of the dose curve; as a rule, active = well fitted inhibition curve with a large enough effect; inconclusive = small, poorly fitted or top-dose-only effect; inactive = no such curve, though single readings can be large or run the other way. This is one part of a sample in which actives are shown more often than they occur.
Permitted responses: active, inactive

Prompt: Check the results log: what was the call for O=C(COC(=O)c1ccccc1)Nc1ccccc1Sc1ccccc1 ?
Response: inactive

Prompt: Identify the outcome logged in this assay for the compound shown: O=C(O)C1CSC(c2cccnc2)N1 (configuration not stated)
Response: active

Prompt: Per the records of this test, what outcome belongs to CCOC(=O)C1(c2ccccc2)CCN(CC(O)c2ccc(NC(C)=O)cc2)CC1 (configuration not stated) ?
Response: inactive

Prompt: Fill in: this test's call for CN(C)C(=O)NC(O)C(Cl)(Cl)Cl (configuration not stated) is ___
Response: inactive

Prompt: Test call for this compound, please: C[C@]12CCC3C(CC[C@H]4[C@H](O)[C@H](O)CC[C@]34C)C1CC[C@@H]2O (some centres not stated)
Response: inactive

Prompt: # lookup: test call for CCC(=O)CC(c1ccc([N+](=O)[O-])cc1)c1c(O)c2ccccc2oc1=O (configuration not stated)
Response: inactive

Prompt: Hi team, can someone confirm the assay call for COCCNC(=O)CN1C2CCC1CC(O)(c1cccnc1)C2 (configuration not stated) ?
Response: inactive
